These measurements were taken from PubChem BioAssay AID1019.

Below is a list of entries, each paired with its recorded inhibition value.
Tested on: alkaline phosphatase, intestinal [Bos taurus]
Method summary: bovine intestinal alkaline phosphatase inhibitors, primary screen, selectivity assay for TNAP inhibitor project, biochemical, bovine IAP, CDP-star luminescence (AID 1019)
Reported conditions: purified bovine IAP, 30 min, at 20 µM, active compounds read high
Screen size: about 190,000 compounds; fewer than 10 were called active. Only a sample is shown.
Report only the number, with the unit % understood.

Examples from the recorded data:
COc1ccc(CCN=C2SCC(=O)N2Cc2ccccc2)cc1OC    3.1
CC(C)c1cc(NCc2ccccn2)n2c(nc3ccccc32)c1C#N    -20.8
Oc1ccc(N2CCN(C(=S)NCc3ccccc3)CC2)cc1    6.1

IN: Request body: readout inhibition, system alkaline phosphatase, intestinal [Bos taurus], query CCc1ccc(N2CC(O)=C(c3nc4ccccc4c(=O)[nH]3)C2=N)cc1 . Return the value.
OUT: -19.9

IN: Consider next the compound CCN(CC)CCN(C(=O)c1ccc(N2C(=O)CCC2=O)cc1)c1nc2cc3c(cc2s1)OCO3 in the same way.
OUT: -11.6

IN: And for O=C(CCc1ccc(S(=O)(=O)N2CCOCC2)cc1)NN=C1CCCCCCC1 ?
OUT: 5

----------
Test system: alkaline phosphatase, intestinal [Bos taurus]
Method summary: bovine intestinal alkaline phosphatase inhibitors, primary screen, selectivity assay for TNAP inhibitor project, biochemical, bovine IAP, CDP-star luminescence (AID 1019)
Reported conditions: purified bovine IAP, 30 min, at 20 µM, active compounds read high
Fewer than 10 of roughly 190,000 compounds were called active. Only a sample is shown.
Metric name: inhibition (%)
Write down the numeric answer in % and omit the unit.

CC(=O)Nc1nc(N(C)C)nc(N(C)C)n1    4.4
Cc1cccc(N2CCN(C(=O)/C=C/c3ccco3)CC2)c1C    6.3
CCC(C)N(C)C1CCN(C(=S)Nc2ccc(OC)cc2)CC1 (stereo not drawn)    -6.9

Next, consider the following compound.
IN: Quick check: inhibition of CCC1SC(CC)C(=O)N(CC(=O)NC2CCCCC2)C1=O (stereo not drawn) ?
OUT: 11.7

----------
Test system: alkaline phosphatase, intestinal [Bos taurus]
Method summary: bovine intestinal alkaline phosphatase inhibitors, primary screen, selectivity assay for TNAP inhibitor project, biochemical, bovine IAP, CDP-star luminescence (AID 1019)
Reported conditions: purified bovine IAP, 30 min, at 20 µM, active compounds read high
Fewer than 10 of roughly 190,000 compounds were called active. A selection follows.
Metric name: inhibition (%)
The answer is to be given in %; state only the numeric part.

Known results for compounds:
COc1ccccc1N1CCN(CC(=O)NCCc2ccc(S(N)(=O)=O)cc2)CC1    -0.9
CC(=O)NNC1=Nc2ccccc2N(C)C(C)C1 (configuration not stated)    26.5

IN: Any idea what its inhibition is? The compound is Cc1ccc(S(=O)(=O)N(Cc2ccc(Cl)cc2)c2ccccc2C(=O)NCc2cccnc2)cc1
OUT: 15.3

IN: And O=C(CSc1nncs1)NC1CCCc2ccccc21 (configuration not stated) ?
OUT: -2.1

IN: Next compound up: CN(c1ccccc1)S(=O)(=O)c1cc(C(=O)OCC(=O)N2CCN(C(=O)c3ccco3)CC2)ccc1Cl
OUT: -7.4

IN: Do the same for CC(C)C(=O)Nc1ccc2oc(=O)ccc2c1 please
OUT: 7

IN: Here is the next compound: Cc1cccc(CSc2ccc(-c3cccs3)nn2)c1
OUT: 14.5

IN: # repeat for CC(C)CCNC(=O)c1cccnc1Sc1ccccc1
OUT: -6.1

IN: Then what about the compound CC(C)c1nc2sc3c(c2c(=O)n1N)CC(C)(C)OC3 ?
OUT: -5

IN: Entry to check: Cn1c(CCCOc2ccc(Cl)cc2Cl)n[nH]c1=S
OUT: 25.8

IN: Here is the next compound: COc1ccc(-n2cnnc2SCC(=O)Nc2cccc([N+](=O)[O-])c2)cc1
OUT: 8.1

IN: Would you mind doing CCOC(=O)/C(C#N)=C/c1ccc(N2CCCCC2)cc1 as well?
OUT: 11.8

----------
System: alkaline phosphatase, intestinal [Bos taurus]
Method summary: bovine intestinal alkaline phosphatase inhibitors, primary screen, selectivity assay for TNAP inhibitor project, biochemical, bovine IAP, CDP-star luminescence (AID 1019)
Reported conditions: purified bovine IAP, 30 min, at 20 µM, active compounds read high
Among all 190,000 compounds or so, fewer than 10 were called active. Only a sample is shown.
Metric name: inhibition (%)
I only need the number, in %, no unit after it.

CC(C)N(Cc1nc(-c2ccc3c(c2)OCO3)no1)CC1CCC(=O)N1 (centres undefined)    2.1
COC(=O)Cc1ccc(NC(=S)NCc2ccco2)cc1    4
O=C(C1=C[C@H](c2ccc(C(F)(F)F)cc2)C[C@H](OCc2ccc(CO)cc2)O1)N1CCN(Cc2ccccc2)CC1    -12.1
COc1ccc(CCNC(=O)Cn2c(=O)n(CC3CCCO3)c(=O)c3ccccc32)cc1OC (centres undefined)    -3.9
O=C(c1ccc(C(F)(F)F)cc1)C1CCCN(C(=O)c2csnn2)C1 (centres undefined)    9.5

IN: Provide the documented inhibition with alkaline phosphatase, intestinal [Bos taurus] as the system for COc1cc(NS(=O)(=O)c2ccc(NC(=O)CN3C(=O)c4ccccc4C3=O)cc2)ncn1
OUT: 3.8

IN: Next compound up: O=[N+]([O-])c1ccc(NCCCO)c(C(F)(F)F)c1
OUT: -0.5

IN: // next record CCOc1ccc(-c2n[nH]c(C)c2-c2ccccn2)c(O)c1
OUT: -27.5

IN: Now the same for CN(CC(=O)NCCc1ccccc1)S(=O)(=O)c1cnc[nH]1
OUT: 5.2

IN: Also, O=S1(=O)CCC(NC(=S)SCc2ccccc2Br)C1 (centres undefined) please.
OUT: 23.3

IN: Would you mind doing O=C(Nc1cccc(F)c1)c1coc(=O)c(Br)c1 as well?
OUT: 13.2

IN: // next record Cc1ccc(C2=NN(C(=O)COc3ncnc4ccccc34)C(c3ccco3)C2)cc1 (centres undefined)
OUT: -8.2

IN: And COc1ccc(OCCCn2cccc2/C=C2/C(=N)N3OC(C)=CC3=NC2=O)cc1 ?
OUT: 13.7

IN: Would you kindly repeat that for CCCc1nc2c([nH]1)C(c1cccnc1)C(C#N)=C(N)O2 (centres undefined) ?
OUT: 8.5

IN: // repeat for Cn1cccc1C(C#N)c1ccccc1C#N (centres undefined) and report
OUT: -10.8

IN: Same question for Cc1ccc(-c2ccc(/C=N/NC(=O)CN3CCOCC3)o2)cc1[N+](=O)[O-] please.
OUT: -0.9

IN: Again, but for CC(C)(C)c1cnnn1-c1ccc([N+](=O)[O-])cc1
OUT: 3.1

IN: // repeat for CC(C)(C)n1ncc2c(=O)n(Cc3ccc(Cl)cc3)cnc21 and report
OUT: -1.6

IN: Also check C/C(=N\NC(=O)C(N)=O)c1ccc2c(c1)OCCO2
OUT: -4.3

----------
The reader will find reported inhibition values listed item by item below.
System: alkaline phosphatase, intestinal [Bos taurus]
Method summary: bovine intestinal alkaline phosphatase inhibitors, primary screen, selectivity assay for TNAP inhibitor project, biochemical, bovine IAP, CDP-star luminescence (AID 1019)
Reported conditions: purified bovine IAP, 30 min, at 20 µM, active compounds read high
Fewer than 10 of roughly 190,000 compounds were called active. Not all results are given here.
Output spec: scalar in %, unitless text.

IN: Query: inhibition; subject: CCn1nc(C)c(CN2CCN(Cc3ccc(OC)c(C)c3C)C(CCO)C2)c1C (centres undefined)
OUT: -4.7

IN: Further, for O=C(CSc1nnc(-c2ccc([N+](=O)[O-])cc2)o1)Nc1ccccn1 ?
OUT: -24.6

IN: Next entry: CCCCN(CC)CCCNC(=O)c1ccc(CSc2nc3ccncc3[nH]2)cc1
OUT: -24

IN: Same read-out for COc1cc(C(=O)Nc2cc(C(F)(F)F)ccc2-n2cncn2)cc(OC)c1OC ?
OUT: -1.7

IN: Same for COc1ccc(OC)c(CNC(=O)c2cc(=O)[nH]c3ccc(S(=O)(=O)N4CCCC4)cc23)c1
OUT: 9.9

IN: Check NC1=C([N+](=O)[O-])C(c2ccccc2)C2=C(CCCC2=O)O1 (centres undefined) too.
OUT: 3.7

IN: One more compound: O=C(COC(=O)/C=C/c1ccc(S(=O)(=O)N2CCCCCC2)cc1)NCc1ccccc1Cl
OUT: 14.5

IN: Same thing, different compound: CN(C(=O)CSc1nnc(-c2c[nH]c3ccccc23)o1)C1CCS(=O)(=O)C1 (centres undefined)
OUT: -2.2

IN: // same read-out, input: Cc1cccc(NC(=O)c2nnn(-c3cccc(C(F)(F)F)c3)c2N)c1
OUT: 6.8

IN: Now the same for Brc1ccc(C2CC(c3ccccc3)=Nc3ccccc3N2)cc1 (centres undefined)
OUT: 7.5

IN: Follow-up item: Cc1ccc(Nc2c(F)c(F)c(F)c(F)c2C(=O)O)c(C)c1
OUT: 1.3

IN: Same question, O=S(=O)(NCCc1ccc(F)cc1)c1cccc2cccnc12 this time
OUT: 10.8

IN: Ok, now CC(C)(c1ccccc1)c1ccc(OCCN)cc1
OUT: 14.7

IN: Moving on to C=CCO/N=C/C1=C(O)C(C(=O)OC)C(C)(C)CC1=O (centres undefined)
OUT: -21.8

IN: What do we get for Cc1ccc(NC(=O)c2oc3ccccc3c2C)c([N+](=O)[O-])c1 ?
OUT: 21.2

IN: Also COc1ccccc1Oc1ccc(N/C=C2/CCCC2=O)cc1 ?
OUT: 20.1
